# Study Target: T1, human IGFBP4 (human, UniProt P22692 22-258)
# T1 construct: Bought protein
# T1 sequence (looked up): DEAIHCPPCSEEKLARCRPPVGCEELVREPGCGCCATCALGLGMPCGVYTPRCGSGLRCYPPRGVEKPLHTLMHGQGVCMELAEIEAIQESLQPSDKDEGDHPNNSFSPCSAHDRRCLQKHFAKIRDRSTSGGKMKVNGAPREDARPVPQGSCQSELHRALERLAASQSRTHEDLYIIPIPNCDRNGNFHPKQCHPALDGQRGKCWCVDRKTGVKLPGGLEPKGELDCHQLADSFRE
# Protocol Summary: ELISA, scFv, secondary screening

Binder: E05 scFv (scFv, V domains shown, scFv as screened by ELISA) VH: EVQLVESGGGLVQPGGSLKLSCAASGFTFSGYGMNWVRQAPGKGLEWVSYVGSSSSTIYYADSVKGRFTISRDNANNSLYLQMNSLRAEDTAVYYCARGLGGNWGQGTMVTVSS VL: QPGLTQPPSASGAPGQRVTISCSGSRSNIGSNYVHWYQQLPGTAPKLIIYRNDQRPSGVPARFSASKSGTSASLAISGLRSEDEADYYCAAWDDGLSVLFGGGTKLTVL
binding result: no binding

Binder: E03 scFv (scFv, V domains shown, scFv as screened by ELISA) VH: QVQLVQSGAEVKKPGSSVKVSCKASGGTFSSYAISWVRQAPGQGLEWMGGITPIFGTANYAQKFQGRVTITADESTSTAYMELSSLRSEDTAVYYCARAGILTGYYFDYWGQGTLVTVSS VL: NFMLTQPHSVSESPGKTVTISCTRSSGSIASNYVQWYQQRPGSSPTTVIYEDNQRPSGVPDRFSGSIDSSSNSASLTISGLKTEDEADYYCQSYDSSNRPWVFGGGTKLTVL
binding result: no binding

Binder: D10 scFv (scFv, V domains shown, scFv as screened by ELISA) VH: QVQLVQSGAEVKKPGASVKVSCKASGYTFTSYGISWVRQAPGQGLEWMGWISAYNGNTNYAQKLQGRVTMTTDTSTSTAYMELRSLRSDDTAVYYCARDRYLGWFDPWGQGTLVTVSS VL: QSALTQPASVSGSPGQSITISCTGTSSDVGGYNYVSWYQQHPGKAPKLMIYEVSNRPSGVSNRFSGSKSGNTASLTISGLQAEDEADYYCSSYTSSSTPYVFGTGTKLTVL
binding result: no binding
